- Tested on: Human B Lymphocyte cell line, SU-DHL-8
- Protocol description: Relative cell viability CCK-8, SU-DHL-8
- Format: cell-based
- Condition details: Homo sapiens, SU-DHL-8, 48 h, read-out: Relative cell viability (%), SU-DHL-8, 10 μM; 48 hours; untreated (DMSO) = 100%
# label = Fulfilled if viability at 10 µM < 8% else Not fulfilled

>  <Molecule>
Nc1ncccc1C(=O)NCCCCCCCCCCCCn1nnc2cccnc21

>  <Measured on>
Human B Lymphocyte cell line, SU-DHL-8

>  <Answer label>
Fulfilled

$$$$
>  <Molecule>
Nc1ncccc1C(=O)NCCCCCCCCCCCCN1CCCCC1

>  <Measured on>
Human B Lymphocyte cell line, SU-DHL-8

>  <Answer label>
Fulfilled

$$$$
>  <Molecule>
Nc1ncccc1C(=O)NCCCCCCCCCCCCN1CCc2ccccc2C1

>  <Measured on>
Human B Lymphocyte cell line, SU-DHL-8

>  <Answer label>
Not fulfilled

$$$$

### Prompt Check if viability at 10 µM falls below 8% for CC1CN(C(=O)OC(C)(C)C)C(C)CN1CCCCCCCCCCCCNC(=O)c1cccnc1N (stereo not shown) .
### Response Fulfilled

### Prompt Ok, now CN1CCN(CCCCCCCCCCCCNC(=O)c2ccc3[nH]cnc3c2)CC1
### Response Fulfilled

### Prompt Ok, now Nc1ncccc1C(=O)NCCCCCCCCCCCCN1CCSC1
### Response Fulfilled

### Prompt Ok, now Nc1ncccc1C(=O)NCCCCCCCCCCCCN1CCC(O)CC1
### Response Not fulfilled

### Prompt Ok, now CN(C)CCN1CCN(CCCCCCCCCCCCNC(=O)c2cccnc2N)CC1
### Response Fulfilled

### Prompt Ok, now CN(C)C1CCN(CCCCCCCCCCCCNC(=O)c2cccnc2N)C1 (stereo not shown)
### Response Fulfilled

### Prompt Ok, now Nc1ncccc1C(=O)NCCCCCCCCF [Compound 61, 2-Amino-N-(8-fluoro-octyl)-nicotinamide]
### Response Not fulfilled

### Prompt Ok, now Nc1ccncc1C(=O)NCCCCCCCCCCCCF
### Response Fulfilled

### Prompt Ok, now Nc1ncccc1C(=O)NCCCCCCCCCCCCN1CCOCC1
### Response Not fulfilled

### Prompt Ok, now Nc1ncccc1C(=O)NCCCCCCCCCCCCN1CC(F)C1
### Response Not fulfilled
